Record form. Attribute: MCF at 1 µM. Fill in for each entry.
# Target system: T1, human CD3 expressed on HEK293H cells (human, UniProt P04234 22-171; P09693 23-182; P07766 23-207; P20963 22-164)
# T1 construct: also called HEK293H human CD3; HEK293H CD3
# T1 sequence (P04234 22-171 limits assumed, chain 1 of 4): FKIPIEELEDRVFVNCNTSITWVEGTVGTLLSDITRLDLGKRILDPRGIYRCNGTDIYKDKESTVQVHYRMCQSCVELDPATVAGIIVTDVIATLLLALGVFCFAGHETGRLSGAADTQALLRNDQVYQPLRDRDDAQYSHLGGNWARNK
# T1 sequence (P09693 23-182 limits assumed, chain 2 of 4): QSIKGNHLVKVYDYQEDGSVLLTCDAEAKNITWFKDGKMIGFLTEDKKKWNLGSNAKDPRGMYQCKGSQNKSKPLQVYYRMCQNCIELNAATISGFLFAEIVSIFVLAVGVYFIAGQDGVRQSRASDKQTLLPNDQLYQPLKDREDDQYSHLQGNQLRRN
# T1 sequence (P07766 23-207 limits assumed, chain 3 of 4): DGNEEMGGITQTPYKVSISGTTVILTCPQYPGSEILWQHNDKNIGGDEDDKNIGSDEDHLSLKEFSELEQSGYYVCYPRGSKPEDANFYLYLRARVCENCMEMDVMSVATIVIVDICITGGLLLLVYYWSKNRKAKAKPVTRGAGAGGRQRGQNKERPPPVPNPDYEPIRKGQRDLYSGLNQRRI
# T1 sequence (P20963 22-164 limits assumed, chain 4 of 4): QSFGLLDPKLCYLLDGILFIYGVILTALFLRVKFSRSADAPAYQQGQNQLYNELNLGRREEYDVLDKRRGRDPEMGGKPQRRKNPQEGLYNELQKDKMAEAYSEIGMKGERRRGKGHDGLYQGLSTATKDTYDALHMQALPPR
# Protocol description: flow cytometry, HEK293H human CD3 cells
Your answer is read as MCF, so omit the unit and give the number.

**Query** For the binder T0170055A02 (VHH, Monovalent anti-TCR Nanobody, cluster A; expressed in E. coli as triple Flag, His6-tagged protein; also called T0170PMP055A02; T01700055A02; not shown: C-terminal triple Flag-His6 tag of the E. coli-made monovalent Nanobody) VHH: EVQLVESGGGLVQPGGSLRLSCAASGDVHKINILGWYRQAPAKEREMVAHITIGDATDYADSAKGRFTISRDEAKNMVYLQMNSLKPEDTAVYFCRAYSRIYPYNYWGQGTLVTVSS , what MCF at 1 µM is on record?
**Result** 1190

**Query** Can you check T0170061G01 (VHH, Monovalent anti-TCR Nanobody, cluster C; expressed in E. coli as triple Flag, His6-tagged protein; also called T0170PMP061G01; not shown: C-terminal triple Flag-His6 tag of the E. coli-expressed monovalent) VHH: EVQLVESGGGLVQPGGSLRLSCAASGEIGRINFYRWYRQAPGNQREVVATITIADKTDYADSAKGRFTISRDESRNMVYLQMSSLKPEDTAVYFCHAGSRLYPYDYWGQGTQVTVSS next?
**Result** 495

**Query** Can you check T0170068G05 (VHH, Monovalent anti-TCR Nanobody, cluster B; expressed in E. coli as triple Flag, His6-tagged protein; also called T0170PMP068G05; not shown: C-terminal triple Flag-His6 tag of the E. coli-made monovalent Nanobody) VHH: VQLVEESGGGLVQPGGSLRLSCITSGETFKINIWGWYRQAPGKQRELVASLTIGGATNYADSVKGRFTISEDSAKNTVYLQMNSLKPEDTAVYFCNAKSRIYPYDYWGRGTQVTVSS next?
**Result** 240

**Query** Can you check T0170056G05 (VHH, Monovalent anti-TCR Nanobody, cluster A; expressed in E. coli as triple Flag, His6-tagged protein; also called T0170PMP056G05; T01700056G05; not shown: C-terminal triple Flag-His6 tag of the E. coli-made monovalent Nanobody) VHH: EVQLVESGGGLVQPGGSLRLSCVASGDVHKINFLGWYRQAPGKEREKVAHISIGDQTDYADSAKGRFTISRDESKNMVYLQMNSLKPEDTAVYFCRAFSRIYPYDYWGQGTLVTVSS next?
**Result** 352
